System: Rattus norvegicus
experimental.protocol: Analgesic activity in Sprague-Dawley rat assessed as inhibition of spinal nerve injury-induced thermal hyperalgesia at 30 mg/kg, po after 60-90 mins
Format: functional
Design: scale not given: the % may be the effect or the level left
observable: Activity (%)
Please reply with the bare figure in % and do not write the unit itself.

(Q) Requested read-out: Activity. Entry: O=C(CC(c1ccccc1)c1ccccc1)N1CCN(C(c2ccccc2)c2cccc(C(F)(F)F)c2)CC1 (centres undefined)
(A) 24.2

(Q) Let us now turn to O=C(CC(c1ccccc1)c1ccccc1)N1CCN([C@@H](c2ccccc2)c2ccc(Cl)cc2)CC1
(A) 45.4

(Q) Let us now turn to O=C(CC(c1ccccc1)c1ccccc1)N1CCN(C(c2ccccc2)c2ccccc2)CC1
(A) 96.3

(Q) Let us now turn to O=C(CC(c1ccccc1)c1ccccc1)N1CCN(C(c2ccccc2)c2ccc(Cl)cc2)CC1 (racemic)
(A) 13.7
